- tgt: T1, soluble human GPNMB (recombinant extracellular domain) (human, UniProt Q14956 23-498)
- T1 construct: also called huGPNMB; recombinant human GPNMB extracellular domain; not shown: C-terminal polyhistidine or Avi-His tag
- T1 sequence: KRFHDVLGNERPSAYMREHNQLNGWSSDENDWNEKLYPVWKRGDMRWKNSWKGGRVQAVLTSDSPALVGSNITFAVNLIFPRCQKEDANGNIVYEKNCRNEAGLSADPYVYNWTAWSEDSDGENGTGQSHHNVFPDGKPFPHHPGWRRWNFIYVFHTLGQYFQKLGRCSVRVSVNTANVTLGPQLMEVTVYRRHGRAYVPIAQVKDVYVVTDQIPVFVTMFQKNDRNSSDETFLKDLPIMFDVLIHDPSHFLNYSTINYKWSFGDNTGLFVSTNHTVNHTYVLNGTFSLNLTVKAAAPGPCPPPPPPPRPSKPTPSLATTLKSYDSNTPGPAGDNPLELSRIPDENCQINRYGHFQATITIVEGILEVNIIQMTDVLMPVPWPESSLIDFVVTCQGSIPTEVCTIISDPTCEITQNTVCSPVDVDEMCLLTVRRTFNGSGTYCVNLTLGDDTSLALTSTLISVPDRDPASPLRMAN
- protocol_notes: SPR Carterra, Ab immobilized
attribute_measured: koff (s⁻¹)
Please state the figure in s⁻¹; there is no need to write the unit.

# count of solved cases: 2
anti-GPNMB antibody GPN-11 (antibody, human IgG1, V domains shown, chimeric) VH: QVQLQQPGAELVKPGASVKLSCKASGYTFTSYWMHWVKQRPGQGLEWIGEINSSNGRTNYNEKFKTKATLTVDRSSSTAYMQLSSLTSEDSAVYYCARLGYYSGSPYPYYAMDCWGQGTSVTVSS VL: DIQMTQSPASLSVSVGETVTITCRASENIYSNLAWYQQKQGKSPQLLVYAATNLADGVPSRFSGSGSGTQYSLKINSLQSEDFGSYYCQHFWNTPPTFGGGTKLEIK : 0.00095
anti-GPNMB antibody GPN-08 (antibody, human IgG1, V domains shown, chimeric) VH: QVQLQQPGAELVKPGASVKLSCRASGYTFTSYWLHWVKQRPGQGLEWIGEINPSDGRTNYIEKVKTKATLTVDKSSSTAYMQLSSLTSEDSAVYYCARSGGNYAWFAYWGQGTLVTVSA VL: DIVMTQSHKFMSTSVGDRVSITCKASQDVSPSVAWYQQRPGQSPKLLIYSASYRYTGVPDRFTGSGSGTDFTFTISSVQAEDLAVYYCQQHYSIPLTFGAGTKLELK : 0.0014

Below: the item to evaluate.
Dear colleague, I am looking for the recorded koff of the following binder: anti-GPNMB antibody GPN-06 (antibody, human IgG1, V domains shown, chimeric) VH: QVQLQQSGAELVKPGASVKLSCKASGYTFTNYYMYWVKQRPGQGLEWIGEINTRNGGTNFNEKFKSKATLTVDKSSSTAYMQLSSLTSEDSAVYYCTTGFAYWGQGTLVTVSA VL: DIQMTQSPASLSASVGETVTITCRASENIYSYLVWYQQNQGKSPQLLVYNAKTLAEGVPSRFSGSGSGTQFSLKINSLQPEDFGTYYCQHHYGTPFTFGSGTKLEIK
0.0032
